Test system: Enterococcus gallinarum 245
Assay: MIC, standard broth micro-dilution assay, EG 245
Type: cell-based
Form field: minimal inhibitory concentration (MIC), EG 245 (one value per entry).
Measure: minimal inhibitory concentration (MIC), EG 245

CC1OC(OC2c3ccc(c(Cl)c3)Oc3cc4cc(c3OC3OC(CO)C(O)C(O)C3OC3CC(C)(NCc5ccc(-c6ccc(Cl)cc6)cc5)C(O)C(C)O3)Oc3ccc(cc3Cl)C(O)C(NC(=O)CCCCCCCc3ccccc3)C(=O)NC(CC(N)=O)C(=O)NC4C(=O)NC3C(=O)NC2C(=O)NC(C(=O)O)c2cc(O)cc(O)c2-c2cc3ccc2O)CC(C)(N)C1O (stereo not drawn) [Example 8] = 2
CC(C)CC(NC(=O)OC(C)(C)C)C(=O)NC1C(=O)NC(CC(N)=O)C(=O)NC2C(=O)NC3C(=O)NC(C(=O)NC(C(=O)O)c4cc(O)cc(O)c4-c4cc3ccc4O)C(OC3CC(C)(N)C(O)C(C)O3)c3ccc(c(Cl)c3)Oc3cc2cc(c3OC2OC(CO)C(O)C(O)C2OC2CC(C)(NCc3ccc(-c4ccccc4)cc3)C(O)C(C)O2)Oc2ccc(cc2Cl)C1O (stereo not drawn) [Example 11] = 1
CC1OC(OC2C(Oc3c4cc5cc3Oc3ccc(cc3Cl)[C@@H](O)[C@@H](NC(=O)[C@@H](Cc3ccc(Cl)cc3)NC(=O)OC(C)(C)C)C(=O)N[C@@H](CC(N)=O)C(=O)N[C@H]5C(=O)N[C@H]3C(=O)NC(C(=O)N[C@H](C(=O)O)c5cc(O)cc(O)c5-c5cc3ccc5O)[C@H](OC3CC(C)(N)C(O)C(C)O3)c3ccc(c(Cl)c3)O4)OC(CO)C(O)C2O)CC(C)(N)C1O (stereo partly drawn) [Example 20] = 0.5
CC1OC(OC2c3ccc(c(Cl)c3)Oc3cc4cc(c3OC3OC(CO)C(O)C(O)C3OC3CC(C)(NCc5ccc(-c6ccccc6)cc5)C(O)C(C)O3)Oc3ccc(cc3Cl)C(O)C(NC(=O)C(N)CCCCN)C(=O)NC(CC(N)=O)C(=O)NC4C(=O)NC3C(=O)NC2C(=O)NC(C(=O)O)c2cc(O)cc(O)c2-c2cc3ccc2O)CC(C)(N)C1O (stereo not drawn) [Example 31] = 0.5
CCCCCCNC(CC(C)C)C(=O)NC1C(=O)NC(CC(N)=O)C(=O)NC2C(=O)NC3C(=O)NC(C(=O)NC(C(=O)O)c4cc(O)cc(O)c4-c4cc3ccc4O)C(OC3CC(C)(N)C(O)C(C)O3)c3ccc(c(Cl)c3)Oc3cc2cc(c3OC2OC(CO)C(O)C(O)C2OC2CC(C)(NCCCCCC)C(O)C(C)O2)Oc2ccc(cc2Cl)C1O (stereo not drawn) [Example 38] = 0.5
CC1OC(OC2c3ccc(c(Cl)c3)Oc3cc4cc(c3OC3OC(CO)C(O)C(O)C3OC3CC(C)(NCc5ccc(-c6ccccc6)cc5)C(O)C(C)O3)Oc3ccc(cc3Cl)C(O)C(NC(=O)c3ccc(-c5ccccc5)cc3)C(=O)NC(CC(N)=O)C(=O)NC4C(=O)NC3C(=O)NC2C(=O)NC(C(=O)O)c2cc(O)cc(O)c2-c2cc3ccc2O)CC(C)(N)C1O (stereo not drawn) [Example 6] = 1

---

Tested on: Staphylococcus haemolyticus 105
Test: MIC, standard broth micro-dilution assay, SH 105
Assay type: cell-based
Experimental: The antibacterial efficacy of the present compounds is illustrated by Table III. The minimal inhibitory concentrations (MICs) were determined using a standard broth micro-dilution assay.
Measure: minimal inhibitory concentration (MIC), SH 105

CC1OC(OC2c3ccc(c(Cl)c3)Oc3cc4cc(c3OC3OC(CO)C(O)C(O)C3OC3CC(C)(NCc5ccc(-c6ccccc6)cc5)C(O)C(C)O3)Oc3ccc(cc3Cl)C(O)C(NC(=O)CCCCCCCc3ccccc3)C(=O)NC(CC(N)=O)C(=O)NC4C(=O)NC3C(=O)NC2C(=O)NC(C(=O)O)c2cc(O)cc(O)c2-c2cc3ccc2O)CC(C)(N)C1O (centres unmarked) = 1
CSCCC(NC(=O)OC(C)(C)C)C(=O)NC1C(=O)NC(CC(N)=O)C(=O)NC2C(=O)NC3C(=O)NC(C(=O)NC(C(=O)O)c4cc(O)cc(O)c4-c4cc3ccc4O)C(OC3CC(C)(N)C(O)C(C)O3)c3ccc(c(Cl)c3)Oc3cc2cc(c3OC2OC(CO)C(O)C(O)C2OC2CC(C)(NCc3ccc(-c4ccccc4)cc3)C(O)C(C)O2)Oc2ccc(cc2Cl)C1O (centres unmarked) = 1

---

Entries and their minimal inhibitory concentration (MIC), EC 14 values follow.
Tested on: Escherichia coli EC14
Experiment: MIC, standard broth micro-dilution assay, EC 14
Type: cell-based
Measure: minimal inhibitory concentration (MIC), EC 14

CC1OC(OC2c3ccc(c(Cl)c3)Oc3cc4cc(c3OC3OC(CO)C(O)C(O)C3OC3CC(C)(NCc5ccc(-c6ccccc6)cc5)C(O)C(C)O3)Oc3ccc(cc3Cl)C(O)C(NC(=O)C3CCCN3)C(=O)NC(CC(N)=O)C(=O)NC4C(=O)NC3C(=O)NC2C(=O)NC(C(=O)O)c2cc(O)cc(O)c2-c2cc3ccc2O)CC(C)(N)C1O (stereo not drawn) [Example 32] = >64
CC1OC(OC2c3ccc(c(Cl)c3)Oc3cc4cc(c3OC3OC(CO)C(O)C(O)C3OC3CC(C)(NCc5ccc(-c6ccccc6)cc5)C(O)C(C)O3)Oc3ccc(cc3Cl)C(O)C(NC(=O)C3CCCN3C(=O)OC(C)(C)C)C(=O)NC(CC(N)=O)C(=O)NC4C(=O)NC3C(=O)NC2C(=O)NC(C(=O)O)c2cc(O)cc(O)c2-c2cc3ccc2O)CC(C)(N)C1O (stereo not drawn) [Example 29] = >64
CCCCCCNC(CC(C)C)C(=O)NC1C(=O)NC(CC(N)=O)C(=O)NC2C(=O)NC3C(=O)NC(C(=O)NC(C(=O)O)c4cc(O)cc(O)c4-c4cc3ccc4O)C(OC3CC(C)(N)C(O)C(C)O3)c3ccc(c(Cl)c3)Oc3cc2cc(c3OC2OC(CO)C(O)C(O)C2OC2CC(C)(NCCCCCC)C(O)C(C)O2)Oc2ccc(cc2Cl)C1O (stereo not drawn) = >64

---

Items are presented alongside their recorded minimal inhibitory concentration (MIC), SA 447.
Test system: Staphylococcus aureus 447
Assay: MIC, standard broth micro-dilution assay, SA 447
Format: cell-based
Measure: minimal inhibitory concentration (MIC), SA 447

CC(C)CC(NC(=O)OC(C)(C)C)C(=O)NC1C(=O)NC(CC(N)=O)C(=O)NC2C(=O)NC3C(=O)NC(C(=O)NC(C(=O)O)c4cc(O)cc(O)c4-c4cc3ccc4O)C(OC3CC(C)(N)C(O)C(C)O3)c3ccc(c(Cl)c3)Oc3cc2cc(c3OC2OC(CO)C(O)C(O)C2OC2CC(C)(NCc3ccc(-c4ccccc4)cc3)C(O)C(C)O2)Oc2ccc(cc2Cl)C1O (centres unmarked) [Example 11] = 1
CC(C)C(C(=O)NC1C(=O)NC(CC(N)=O)C(=O)NC2C(=O)NC3C(=O)NC(C(=O)NC(C(=O)O)c4cc(O)cc(O)c4-c4cc3ccc4O)C(OC3CC(C)(N)C(O)C(C)O3)c3ccc(c(Cl)c3)Oc3cc2cc(c3OC2OC(CO)C(O)C(O)C2OC2CC(C)(N)C(O)C(C)O2)Oc2ccc(cc2Cl)C1O)N(C)C(=O)OC(C)(C)C (centres unmarked) [Example 41] = 32

---

System: Staphylococcus aureus 446
Assay: MIC, standard broth micro-dilution assay, SA 446
Type: cell-based
Measure: minimal inhibitory concentration (MIC), SA 446

CC1OC(OC2c3ccc(c(Cl)c3)Oc3cc4cc(c3OC3OC(CO)C(O)C(O)C3OC3CC(C)(NCc5ccc(-c6ccccc6)cc5)C(O)C(C)O3)Oc3ccc(cc3Cl)C(O)C(NC(=O)CCCCCCCc3ccccc3)C(=O)NC(CC(N)=O)C(=O)NC4C(=O)NC3C(=O)NC2C(=O)NC(C(=O)O)c2cc(O)cc(O)c2-c2cc3ccc2O)CC(C)(N)C1O (stereo not drawn) = 1
CC(C)CCC(=O)NC1C(=O)NC(CC(N)=O)C(=O)NC2C(=O)NC3C(=O)NC(C(=O)NC(C(=O)O)c4cc(O)cc(O)c4-c4cc3ccc4O)C(OC3CC(C)(N)C(O)C(C)O3)c3ccc(c(Cl)c3)Oc3cc2cc(c3OC2OC(CO)C(O)C(O)C2OC2CC(C)(NCc3ccc(-c4ccccc4)cc3)C(O)C(C)O2)Oc2ccc(cc2Cl)C1O (stereo not drawn) = 0.125
CC1OC(OC2c3ccc(c(Cl)c3)Oc3cc4cc(c3OC3OC(CO)C(O)C(O)C3OC3CC(C)(NCc5ccc(-c6ccc(Cl)cc6)cc5)C(O)C(C)O3)Oc3ccc(cc3Cl)C(O)C(NC(=O)CCCCCCCc3ccccc3)C(=O)NC(CC(N)=O)C(=O)NC4C(=O)NC3C(=O)NC2C(=O)NC(C(=O)O)c2cc(O)cc(O)c2-c2cc3ccc2O)CC(C)(N)C1O (stereo not drawn) = 16
CC(C)CC(NC(=O)OC(C)(C)C)C(=O)NC1C(=O)NC(CC(N)=O)C(=O)NC2C(=O)NC3C(=O)NC(C(=O)NC(C(=O)O)c4cc(O)cc(O)c4-c4cc3ccc4O)C(OC3CC(C)(N)C(O)C(C)O3)c3ccc(c(Cl)c3)Oc3cc2cc(c3OC2OC(CO)C(O)C(O)C2OC2CC(C)(NCc3ccc(-c4ccccc4)cc3)C(O)C(C)O2)Oc2ccc(cc2Cl)C1O (stereo not drawn) [Example 18] = 0.5
CC1OC(OC2c3ccc(c(Cl)c3)Oc3cc4cc(c3OC3OC(CO)C(O)C(O)C3OC3CC(C)(NCc5ccc(-c6ccccc6)cc5)C(O)C(C)O3)Oc3ccc(cc3Cl)C(O)C(NC(=O)C(N)Cc3ccc(Cl)cc3)C(=O)NC(CC(N)=O)C(=O)NC4C(=O)NC3C(=O)NC2C(=O)NC(C(=O)O)c2cc(O)cc(O)c2-c2cc3ccc2O)CC(C)(N)C1O (stereo not drawn) [Example 33] = 1
CC1OC(OC2c3ccc(c(Cl)c3)Oc3cc4cc(c3OC3OC(CO)C(O)C(O)C3OC3CC(C)(NCc5ccc(-c6ccccc6)cc5)C(O)C(C)O3)Oc3ccc(cc3Cl)C(O)C(NC(=O)C(CCCCNC(=O)OC(C)(C)C)NC(=O)OC(C)(C)C)C(=O)NC(CC(N)=O)C(=O)NC4C(=O)NC3C(=O)NC2C(=O)NC(C(=O)O)c2cc(O)cc(O)c2-c2cc3ccc2O)CC(C)(N)C1O (stereo not drawn) [Example 19] = 2
CC(C)CCC(=O)NC1C(=O)NC(CC(N)=O)C(=O)NC2C(=O)NC3C(=O)NC(C(=O)NC(C(=O)O)c4cc(O)cc(O)c4-c4cc3ccc4O)C(OC3CC(C)(N)C(O)C(C)O3)c3ccc(c(Cl)c3)Oc3cc2cc(c3OC2OC(CO)C(O)C(O)C2OC2CC(C)(NCc3ccc(-c4ccc(Cl)cc4)cc3)C(O)C(C)O2)Oc2ccc(cc2Cl)C1O (stereo not drawn) = 0.5
CC(C)CC(N)C(=O)NC1C(=O)NC(CC(N)=O)C(=O)NC2C(=O)NC3C(=O)NC(C(=O)NC(C(=O)O)c4cc(O)cc(O)c4-c4cc3ccc4O)C(OC3CC(C)(N)C(O)C(C)O3)c3ccc(c(Cl)c3)Oc3cc2cc(c3OC2OC(CO)C(O)C(O)C2OC2CC(C)(NCc3ccc(-c4ccccc4)cc3)C(O)C(C)O2)Oc2ccc(cc2Cl)C1O (stereo not drawn) [Example 13] = 1
CC(C)CC(NC(=O)OC(C)(C)C)C(=O)NC1C(=O)NC(CC(N)=O)C(=O)NC2C(=O)NC3C(=O)NC(C(=O)NC(C(=O)O)c4cc(O)cc(O)c4-c4cc3ccc4O)C(OC3CC(C)(N)C(O)C(C)O3)c3ccc(c(Cl)c3)Oc3cc2cc(c3OC2OC(CO)C(O)C(O)C2OC2CC(C)(NCc3ccc(-c4ccccc4)cc3)C(O)C(C)O2)Oc2ccc(cc2Cl)C1O (stereo not drawn) [Example 11] = 1
CC1OC(OC2c3ccc(c(Cl)c3)Oc3cc4cc(c3OC3OC(CO)C(O)C(O)C3OC3CC(C)(N)C(O)C(C)O3)Oc3ccc(cc3Cl)C(O)C(NC(=O)C(Cc3ccccc3)N(C)C(=O)OC(C)(C)C)C(=O)NC(CC(N)=O)C(=O)NC4C(=O)NC3C(=O)NC2C(=O)NC(C(=O)O)c2cc(O)cc(O)c2-c2cc3ccc2O)CC(C)(N)C1O (stereo not drawn) = 4
CC(C)CCC(=O)N[C@H]1C(=O)N[C@@H](CC(N)=O)C(=O)N[C@H]2C(=O)N[C@H]3C(=O)NC(C(=O)N[C@H](C(=O)O)c4cc(O)cc(O)c4-c4cc3ccc4O)[C@H](OC3CC(C)(N)C(O)C(C)O3)c3ccc(c(Cl)c3)Oc3cc2cc(c3OC2OC(CO)C(O)C(O)C2OC2CC(C)(N)C(O)C(C)O2)Oc2ccc(cc2Cl)[C@H]1O (stereo partly drawn) = 1
CCCCCCNC(CC(C)C)C(=O)NC1C(=O)NC(CC(N)=O)C(=O)NC2C(=O)NC3C(=O)NC(C(=O)NC(C(=O)O)c4cc(O)cc(O)c4-c4cc3ccc4O)C(OC3CC(C)(N)C(O)C(C)O3)c3ccc(c(Cl)c3)Oc3cc2cc(c3OC2OC(CO)C(O)C(O)C2OC2CC(C)(NCCCCCC)C(O)C(C)O2)Oc2ccc(cc2Cl)C1O (stereo not drawn) = 1

Every entry's value here was drawn from patent US6670446B1.
